Read-out: Plasminogen activator inhibitor-1 (PAI1), SERPINE1 (gene 5054)
Assay: BSK_BE3C_PAI1: BioMAP Diversity Plus: BE3C Assay for Plasminogen activator inhibitor-1 (PAI1) Biomarker Activity (AID 2283037)
Details: primary human bronchial epithelial cells; actives raise or lower the signal
Activity calls are given as the source filed them. How the source made its calls: active means hit-call score of the fitted dose curve at least 0.9, where 1 is the maximum; inactive means score below 0.9.
# output must be one of active, inactive

Worked examples follow.
SMILES_DATA | ANSWER_LABEL
CCCCN(CC)c1c([N+](=O)[O-])cc(C(F)(F)F)cc1[N+](=O)[O-] | inactive
O=C(O)c1cc(Oc2ccc(C(F)(F)F)cc2Cl)ccc1[N+](=O)[O-] | inactive

*Q* # outcome recorded in this test, key = `CC[C@H](C)[C@H]1O[C@]2(C=C[C@@H]1C)C[C@@H]1C[C@@H](C/C=C(\C)[C@@H](O[C@H]3C[C@H](OC)[C@@H](O[C@H]4C[C@H](OC)[C@@H](NC)[C@H](C)O4)[C@H](C)O3)[C@@H](C)/C=C/C=C3\CO[C@@H]4[C@H](O)C(C)=C[C@@H](C(=O)O1)[C@]34O)O2`
*A* active

====

Molecular target: Retinoic acid receptor RXR-alpha (Homo sapiens)
Experiment: OT_NURR1_NURR1RXRa_1440: Odyssey Thera (OT) 24-hour HEK293T Protein Complementation Assay for Nurr1/retinoid X receptor (RXR) (AID 2283386)
Inconclusive results are not listed. Activity calls are given as the source filed them. How the source made its calls: active means hit-call score of the fitted dose curve at least 0.9, where 1 is the maximum; inconclusive means response in the unintended direction; inactive means score below 0.9.
# output must be one of active, inactive

COMPOUND | ANSWER_LABEL
C[N+]1(C)CCCCC1 | inactive
CC(COc1ccc(Oc2ccccc2)cc1)Oc1ccccn1 (configuration not stated) | inactive
CC1=NNC(=O)N(/N=C/c2cccnc2)C1 | inactive
CCCCOC(=O)[C@@H](C)Oc1ccc(Oc2ccc(C#N)cc2F)cc1 | inactive
CCOP(=S)(OCC)Oc1ccc2c(C)c(Cl)c(=O)oc2c1 | inactive
CCOP(=S)(OCC)OC(Cl)C(Cl)(Cl)Cl (configuration not stated) | inactive

*Q* # outcome recorded in this test, key = `COc1cccc(C(=O)NN(C(=O)c2cc(C)cc(C)c2)C(C)(C)C)c1C`
*A* inactive

*Q* # outcome recorded in this test, key = `CC(C)[C@H](C(=O)O[C@H](C#N)c1cccc(Oc2ccccc2)c1)c1ccc(Cl)cc1`
*A* inactive

*Q* # outcome recorded in this test, key = `CCc1cccc(CC)c1N(COC)C(=O)CCl`
*A* active

*Q* # outcome recorded in this test, key = CC(C)=CC1C(C(=O)OCN2C(=O)C3=C(CCCC3)C2=O)C1(C)C (configuration not stated)
*A* inactive

*Q* # outcome recorded in this test, key = `CSc1nnc(C(C)(C)C)c(=O)n1N`
*A* inactive

*Q* # outcome recorded in this test, key = `CCCCOC(=O)c1ccccc1C(=O)O`
*A* inactive

====

Read-out: Interleukin-1 alpha (IL1a), IL1A (gene 3552)
Test: BSK_BE3C_IL1a: BioMAP Diversity Plus: BE3C Assay for Interleukin-1 alpha (IL1a) Biomarker Activity (AID 2283016)
Conditions: primary human bronchial epithelial cells; actives raise or lower the signal
Activity calls are given as the source filed them. How the source made its calls: active means hit-call score of the fitted dose curve at least 0.9, where 1 is the maximum; inactive means score below 0.9.
QUANTITY_MEASURED: AC50

SMILES_DATA | ENDPOINT_VALUE
CCCCN(CC)c1c([N+](=O)[O-])cc(C(F)(F)F)cc1[N+](=O)[O-] | inactive
CSC1=N[C@@](C)(c2ccccc2)C(=O)N1Nc1ccccc1 | inactive
C#CC(C)(C)NC(=O)c1cc(Cl)cc(Cl)c1 | inactive
CCOP(=O)(OCC)Oc1cc(C)nc(C(C)C)n1 | inactive
O=C(O)c1cc(Oc2ccc(C(F)(F)F)cc2Cl)ccc1[N+](=O)[O-] | inactive
CCCOCC(=Nc1ccc(Cl)cc1C(F)(F)F)n1ccnc1 | 33.5 µM (active)
CN(C)C(=O)Nc1cccc(C(F)(F)F)c1 | inactive
CCCOc1nn(C(=O)NS(=O)(=O)c2ccccc2C(=O)OC)c(=O)n1C | inactive

*Q* Please give the measured AC50 for this compound: `CCC(CC)Nc1c([N+](=O)[O-])cc(C)c(C)c1[N+](=O)[O-]`
*A* inactive
